Value source: ChEMBL document CHEMBL1146708

procedure text: Half life in rats
Type: ADME, organism-based
measurement context: rat, in vivo
Label scheme for half-life: lower than 2 h is false (0), 2 h and above is true (1).

Take a look at these entries with their results.
N[C@H](C(=O)N1CCCC1)[C@H]1CC[C@H](NS(=O)(=O)c2ccc(OC(F)(F)F)cc2)CC1 = true (1)
N[C@H](C(=O)N1CCCC1)[C@H]1CC[C@H](NC(=O)OCc2ccccc2)CC1 = true (1)
N[C@H](C(=O)N1CCCC1)[C@H]1CC[C@H](NS(=O)(=O)c2ccc(NS(=O)(=O)CC(F)(F)F)cc2)CC1 = false (0)

Record N[C@H](C(=O)N1CCSC1)[C@H]1CC[C@H](NC(=O)Nc2ccc(I)cc2)CC1 ; criterion: half-life no lower than 2 h. Met?
true (1)

For this compound, is measured half-life 2 h or higher? N[C@H](C(=O)N1CCSC1)[C@H]1CC[C@H](NS(=O)(=O)c2ccc(OC(F)(F)F)cc2)CC1
true (1)

hey, is half-life for this one >= 2 h? CN(C)C(=O)Nc1ccc(S(=O)(=O)N[C@H]2CC[C@H]([C@H](N)C(=O)N3CCCC3)CC2)cc1
true (1)
